target under test: human BChE (hBChE), human plasmatic butyrylcholinesterase (Homo sapiens)
Sequence (P06276 29-602): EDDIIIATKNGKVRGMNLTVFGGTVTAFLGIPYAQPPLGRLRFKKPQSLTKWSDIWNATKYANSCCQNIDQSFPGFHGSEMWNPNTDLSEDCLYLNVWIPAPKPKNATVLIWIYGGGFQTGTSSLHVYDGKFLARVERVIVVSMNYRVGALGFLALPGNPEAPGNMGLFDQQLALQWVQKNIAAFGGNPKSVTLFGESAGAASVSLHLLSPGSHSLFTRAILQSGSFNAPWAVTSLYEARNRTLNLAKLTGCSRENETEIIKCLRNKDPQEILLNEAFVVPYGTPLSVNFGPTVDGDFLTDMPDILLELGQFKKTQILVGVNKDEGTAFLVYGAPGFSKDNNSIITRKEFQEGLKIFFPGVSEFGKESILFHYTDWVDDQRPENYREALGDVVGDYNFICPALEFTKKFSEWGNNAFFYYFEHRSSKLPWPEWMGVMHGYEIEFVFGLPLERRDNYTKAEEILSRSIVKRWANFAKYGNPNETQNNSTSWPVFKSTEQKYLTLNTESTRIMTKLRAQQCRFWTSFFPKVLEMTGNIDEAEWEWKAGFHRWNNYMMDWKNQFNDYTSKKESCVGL
assay name: hBChE inhibition, modified Ellman's method
Type: biochemical
condition info: mean of at least three experiments; read-out: IC50 hBChE
quantity measured: pIC50
Quick note: pIC50 values are minus log10 of concentrations in mol/L.

chemical structure: O=c1c(NCCCCCNc2c3c(nc4ccccc24)CCCC3)c(NCCCCCNc2c3c(nc4ccccc24)CCCC3)c1=O
quantity measured: pIC50
val: 7.16
--
chemical structure: O=c1c(NCCCCNc2c3c(nc4ccccc24)CCCC3)c(NCCCCNc2c3c(nc4ccccc24)CCCC3)c1=O
quantity measured: pIC50
val: 7.12

Pending molecule:
Could you share what pIC50 was measured for "O=c1c(NCCNc2c3c(nc4cc(Cl)ccc24)CCCC3)c(NCCNc2c3c(nc4cc(Cl)ccc24)CCCC3)c1=O" , tested on human BChE (hBChE), human plasmatic butyrylcholinesterase (Homo sapiens)? 6.82

Source: paper PMC6723352
